B1: SMG5 (parent)
chain: QEKLQVLMAEGLLPAVKVFLDWLR

Variants of: B1
Test: protein stability index of a GFP-peptide fusion (GPS, HEK-293T) (PSI 1-6); higher = more stable;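 further: lentivirally expressed fusions sorted by FACS into six bins by GFP to DsRed ratio, PSI derived from sequencing read proportions per bin multiplied by bin number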
Conditions: c terminus: a fixed tail appended
Answer each item with its documented protein stability index.
Form field (numeric): enter value without unit.

Input D21T . Output protein stability index: 2.98

Lab book: protein stability index of M8Y noted as 3.06

Per the record, M8C has protein stability index of 2.26

For L7N the variant record lists protein stability index as 2.47

// field: protein stability index; key: Q1Y ; value = 2.81

Recorded result, V6Q , protein stability index: 2.02
